Test: Lipophilicity, logD of compound in octanol/water by shake flask method
Format: physicochemical
Measured logD values are reported for all entries that follow.

The following compounds have reported results that may help.
State its logD: CNCc1nc(N(C)C(C)C)cc2c1CN(c1cccc(-c3nnc4n3[C@@H](C)CC4)n1)C2=O
1.9

State its logD: CC[C@H]1CCc2nnc(-c3cccc(N4Cc5c(cc(N(C)C(C)C)nc5CNC)C4=O)n3)n21
2.2

State its logD: CCC(C)n1cnnc1-c1cccc(NC(=O)c2cccc3c2OCC(N)C3)n1 (stereo not drawn)
1.7

State its logD: COc1ccc(CC#N)cc1C(=O)Nc1cccc(-c2nncn2C(C)C)n1
2.3

State its logD: CNCc1cc(OC)cc2c1CN(c1cccc(-c3nncn3C(C)C)n1)C2=O
1.1

State its logD: CC(C)n1cnnc1-c1cccc(NC(=O)c2cccc3c2OCC(N)C3)n1 (stereo not drawn)
1.2

Others:
State its logD: CCCn1cnnc1-c1cccc(N2Cc3c(cc(N(C)C)nc3CNC)C2=O)n1
1

State its logD: CCCn1c(C)nnc1-c1cccc(N2Cc3c(cc(N(C)C(C)C)nc3CNC)C2=O)n1
2

###

Experiment: Unbound clearance in monkey at 1 mg/kg, po or 0.5 mg/kg, iv
Type: ADME, organism-based, Macaca mulatta
Settings: rhesus monkey, in vivo
Outcome Measure: CL free (mL/min/kg)
Give the quantity in mL/min/kg, number only.

State its CL free: CC[C@@H](N)c1nc(N2CCC[C@H]2C)cc2c1CN(c1cccc(-c3nnc4n3[C@@H](C)CC4)n1)C2=O
143

###

Assay: Oral bioavailability in monkey at 1 mg/kg, po
Type: ADME, organism-based, Macaca mulatta
Settings: rhesus monkey, in vivo
Outcome Measure: bioavailability (%)
Give the quantity in %, number only.

State its bioavailability: CC[C@@H](N)c1nc(N2CCC[C@H]2C)cc2c1CN(c1cccc(-c3nnc4n3[C@@H](C)CC4)n1)C2=O
20

###

Test: Tmax in mouse at 15 mg/kg, po or 1 mg/kg, iv
Format: ADME, organism-based
Conditions: in vivo
Outcome Measure: Tmax (h)
Give the quantity in h, number only.

State its Tmax: CC[C@@H](N)c1nc(N2CCC[C@H]2C)cc2c1CN(c1cccc(-c3nnc4n3[C@@H](C)CC4)n1)C2=O
2

###

Experiment: Cytotoxicity against PBMC (unknown origin) assessed as inhibition of ATP level incubated for 3 days by Cell Titer Glo assay
Type: toxicity, cell-based
Measured IC50 at 3 days values are reported for all entries that follow.
Give the quantity in nM, number only.

The following compounds have reported results that may help.
State its IC50 at 3 days: CCCn1cnnc1-c1cccc(N2Cc3c(cc(N(C)C)nc3CNC)C2=O)n1
3500

State its IC50 at 3 days: CC[C@@H](N)c1nc(N2CCC[C@H]2C)cc2c1CN(c1cccc(-c3nnc4n3[C@@H](C)CC4)n1)C2=O
800

State its IC50 at 3 days: CNCc1nc(N(C)C(C)C)cc2c1CN(c1cccc(-c3nnc4n3[C@@H](CF)CC4)n1)C2=O
1300

Others:
State its IC50 at 3 days: CNCc1nc(N(C)C(C)C)cc2c1CN(c1cccc(-c3nnc4n3[C@@H](C)CC4)n1)C2=O
500

###

Measured IC50 values are reported for all entries that follow.
Target: Mitogen-activated protein kinase kinase kinase kinase 1 (Homo sapiens, UniProt Q92918)
Sequence (Q92918 whole entry, the tested form may be a part): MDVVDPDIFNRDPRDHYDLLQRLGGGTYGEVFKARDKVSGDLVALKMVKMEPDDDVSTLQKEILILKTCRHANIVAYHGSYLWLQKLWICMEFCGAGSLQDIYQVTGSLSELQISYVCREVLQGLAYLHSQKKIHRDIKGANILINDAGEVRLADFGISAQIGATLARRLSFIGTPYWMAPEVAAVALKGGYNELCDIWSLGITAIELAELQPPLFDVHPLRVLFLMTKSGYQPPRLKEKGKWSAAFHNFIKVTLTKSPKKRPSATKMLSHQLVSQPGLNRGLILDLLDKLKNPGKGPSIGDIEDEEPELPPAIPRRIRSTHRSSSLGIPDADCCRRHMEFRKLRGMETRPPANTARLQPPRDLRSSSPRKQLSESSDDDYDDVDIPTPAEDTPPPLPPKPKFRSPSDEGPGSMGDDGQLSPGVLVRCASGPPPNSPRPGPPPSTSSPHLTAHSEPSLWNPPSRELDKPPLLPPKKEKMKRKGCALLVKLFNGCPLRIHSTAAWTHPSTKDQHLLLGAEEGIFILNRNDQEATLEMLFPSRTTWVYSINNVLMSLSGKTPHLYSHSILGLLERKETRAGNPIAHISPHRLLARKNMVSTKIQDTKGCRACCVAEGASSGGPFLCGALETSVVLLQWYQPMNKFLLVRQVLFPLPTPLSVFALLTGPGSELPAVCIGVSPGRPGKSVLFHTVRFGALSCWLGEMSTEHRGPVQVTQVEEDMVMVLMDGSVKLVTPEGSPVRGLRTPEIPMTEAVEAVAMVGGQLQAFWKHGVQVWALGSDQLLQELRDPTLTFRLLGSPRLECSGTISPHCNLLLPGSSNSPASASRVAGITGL
Experiment: Inhibition of full-length recombinant human HPK1 (1 to 182 residues) extracted from baculovirus infected Sf21 cells using phospho-acceptor peptide as substrate incubated for 15 mins in presence of ATP by fluorescence based assay

State its IC50: CC[C@H]1CCc2nnc(-c3cccc(N4Cc5c(cc(N(C)C(C)C)nc5CNC)C4=O)n3)n21
< 0.06 nM

State its IC50: CCCn1cnnc1-c1cccc(N2Cc3c(cc(N4CCC[C@H]4C)nc3CNC)C2=O)n1
< 0.06 nM

State its IC50: CCCn1c(C)nnc1-c1cccc(N2Cc3c(cc(N(C)C(C)C)nc3CNC)C2=O)n1
< 0.17 nM

State its IC50: CNCc1nc(N(C)C(C)C)cc2c1CN(c1cccc(-c3nnc4n3[C@@H](C)CC4)n1)C2=O
< 0.05 nM

Okay, next one:
State its IC50: CNCc1nc(N(C)C)cc2c1CN(c1cccc(-c3nncn3[C@@H](C)CC(F)(F)F)n1)C2=O
< 0.05 nM
